B1: ZNF8 (parent)
chain: SLGRHKRTHTGEKPYTCSVCGKSF

# Variants of: B1
# TEST METHOD NOTES: protein stability index of a GFP-peptide fusion (GPS, HEK-293T) (PSI 1-6); higher = more stable;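 further: lentivirally expressed fusions sorted by FACS into six bins by GFP to DsRed ratio, PSI derived from sequencing read proportions per bin multiplied by bin number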
# CONDITIONS USED: c terminus: a fixed tail appended
Recorded protein stability index by entry
READOUT KIND: protein stability index

SLGRHKRTHTGEKPYTCSVCGGSF [K22G]    2.19
SLGVHKRTHTGEKPYTCSVCGKSF [R4V]    2.5
SLGRHKRTHTGGKPYTCSVCGKSF [E12G]    2.79
SLGRHKRTHTGEKPYTCSVCGKQF [S23Q]    2.25
SLGRHKRTHTGEKPYTCSVCQKSF [G21Q]    2.59
SQGRHKRTHTGEKPYTCSVCGKSF [L2Q]    2.25
SLGRHKRTHTGEKPYHCSVCGKSF [T16H]    2.77
SLGRHWRTHTGEKPYTCSVCGKSF [K6W]    1.94
SLGRHKRTHTGEKPYTKSVCGKSF [C17K]    3.65
SLGRHKRTHTGEKPYQCSVCGKSF [T16Q]    3.14
SLGRHKRTHTGEKPYTCSVCGKSC [F24C]    4.13
